- System: M14 melanoma
- Assay Overview: NCI-60 one-dose screen, 48 h
- Measurement Parameters: 10 µM unless noted
This is part of a sample that, as a whole, favours compounds with a hit. Of some 83,000 tested, about 20% had one in any assay. Calls of active or inactive are those of the source. The calls were made as follows: active = growth percent below 10; inactive = the rest.
Can you answer with just one of these options? 1 (yes) for active, 0 (no) for inactive

Task: How was CCC(=O)OC1=CN2C(=NC(c3ccc(N)cc3)=CC2c2cc(OC)c(OC)c(OC)c2)S1 (stereo unspecified) classified in this test?
Output: 0 (no)

Task: Repeat for the following compound: N=C(N)c1ccc(-c2ccc(-c3ccc4ccccc4c3)s2)cc1
Output: 0 (no)

Task: Repeat for the following compound: CC(C)(C)n1cc(-c2ccnc(NCCCNS(=O)(=O)c3ccccc3)c2)c(-c2cccc(O)c2)n1
Output: 0 (no)

Task: Repeat for the following compound: COc1ccc(-c2ccc(-c3ccc(-c4ccc(C(=N)N)cc4)s3)s2)cc1OC
Output: 0 (no)

Task: Repeat for the following compound: C=C[C@@H]1C[C@@H]2Cc3ccccc3N1O2
Output: 0 (no)

Task: Repeat for the following compound: C1=Cc2ccccc2N(c2nnc(-c3ccccc3)o2)c2ccccc21
Output: 0 (no)

Task: Repeat for the following compound: C=C[C@@H]1C[C@@H]2Cc3cc(Cl)ccc3N1O2
Output: 0 (no)

Task: Repeat for the following compound: Nc1ncnc2c1c(-c1ccc(Oc3ccccc3)cc1)nn2C[C@@H]1SSC[C@@H]1O
Output: 1 (yes)

Task: Repeat for the following compound: C=C1C(=O)O[C@H]2[C@H]1CC/C(Cn1cc(CNC(=O)/C=C/c3c[nH]c4ccccc34)nn1)=C\CC[C@@]1(C)O[C@@H]21
Output: 0 (no)

Task: Repeat for the following compound: C=C[C@@H]1C[C@@H]2Cc3cc(F)ccc3N1O2
Output: 0 (no)

Task: Repeat for the following compound: Fc1ccc(Nc2nc(NCCNc3ccnc4cc(Cl)ccc34)nc(N3CCOCC3)n2)cc1
Output: 1 (yes)

Task: Repeat for the following compound: Cn1c(=O)c2[nH]c(C3CC=CCC3)nc2n(C)c1=O (stereo unspecified)
Output: 0 (no)

Task: Repeat for the following compound: COc1cc(-c2nn(-c3cccc(NC(=O)c4ccc(N5CCOCC5)c(C(F)(F)F)c4)c3)cc2-c2ccncc2)ccc1Cl
Output: 1 (yes)

Task: Repeat for the following compound: COc1ccc(C(=O)N2NC(=O)/C(=C/c3ccc(Br)cc3)N=C2c2ccccc2)cc1
Output: 0 (no)

Task: Repeat for the following compound: CCCCCCCCC(C)OC(=O)c1nn(C(C)=O)c2ccccc12 (stereo unspecified)
Output: 0 (no)

Task: Repeat for the following compound: Cc1cc(N/N=C/c2nc(-c3ccc(Br)cc3)oc2C)c2cc(Br)ccc2n1
Output: 0 (no)

Task: Repeat for the following compound: C=C1CCC2C3(C)COC(c4ccccc4)OC3CCC2(C)C1/C=C/C1=CCOC1=O (stereo unspecified)
Output: 0 (no)

Task: Repeat for the following compound: Clc1cc2c(nn1)Nc1ccccc1S2
Output: 0 (no)

Task: Repeat for the following compound: CCN(CC)c1ccc(N=O)cc1
Output: 0 (no)

Task: Repeat for the following compound: O=C(Oc1ccccc1[N+](=O)[O-])C1CCCN1C(=O)OCc1ccccc1 (stereo unspecified)
Output: 0 (no)

Task: Repeat for the following compound: COc1ccc2[nH]c(C(=O)OCc3ccc4c(Cl)cc(Cl)c(O)c4n3)cc2c1
Output: 1 (yes)

Task: Repeat for the following compound: COc1ccc(NC(=O)c2c(Nc3ccc(OC)cc3OC)n[nH]c2N)c(OC)c1
Output: 0 (no)

Task: Repeat for the following compound: N=C(N)c1ccc(-c2ccc(-c3cncc4ccccc34)s2)cc1F
Output: 0 (no)

Task: Repeat for the following compound: NC(N)=N/N=C/c1ccc(-c2ccc(-c3cc(Cl)cc(Cl)c3)s2)cc1
Output: 0 (no)

Task: Repeat for the following compound: CCCCCCCCCCCCNC(=O)[C@H]1CSC(c2ccsc2)N1 (stereo partly specified)
Output: 1 (yes)

Task: Repeat for the following compound: O=C1/C(=C/c2ccccc2)CN(C(=O)CCN2CCC(=NO)CC2)C/C1=C\c1ccccc1
Output: 1 (yes)

Task: Repeat for the following compound: O=S(=O)(NCCNc1nccc(-c2c(-c3ccc(O)cc3)nc3sccn23)n1)c1cccc2ccccc12
Output: 0 (no)

Task: Repeat for the following compound: CCN(CC)CCCNc1nccc2ccc(Cl)cc12
Output: 0 (no)

Task: Repeat for the following compound: Cc1ccc2ccccc2c1C[n+]1ccccc1
Output: 0 (no)

Task: Repeat for the following compound: COc1ccc(S(=O)(=O)n2cc(C(=O)C(=O)Nc3ccncc3)c3ccccc32)cc1F
Output: 0 (no)

Task: Repeat for the following compound: O=C(NS(=O)(=O)c1ccccc1)n1cc(-c2ccncc2)c(-c2ccc(Cl)c(O)c2)n1
Output: 0 (no)

Task: Repeat for the following compound: COc1ccc(C2CC(c3ccc(OC)cc3OC)=NN2c2ccc(S(N)(=O)=O)cc2)cc1 (stereo unspecified)
Output: 0 (no)

Task: Repeat for the following compound: COc1ccc(/C=C2\Oc3cc(OCCCN4CCCC4)ccc3C2=O)cc1
Output: 0 (no)

Task: Repeat for the following compound: O=[N+]([O-])c1cc(S(=O)(=O)Oc2ccccc2)ccc1Cl
Output: 1 (yes)

Task: Repeat for the following compound: CCC(=O)Oc1ccc(/C(=C(/C)Cc2cccc(OC)c2)c2ccc(OCCN(C)C)cc2)cc1
Output: 0 (no)

Task: Repeat for the following compound: Cc1ccc(-c2csc(NC(=O)CCCCl)n2)cc1
Output: 0 (no)

Task: Repeat for the following compound: COc1ccc(C(=O)N2NC(=O)/C(=C/c3cn(-c4ccccc4)nc3-c3ccccc3)N=C2c2ccccc2)cc1
Output: 0 (no)

Task: Repeat for the following compound: CC(C)(C)NCCC(O)c1cc2c(Cl)cc(Cl)cc2c2cc(C(F)(F)F)ccc12 (stereo unspecified)
Output: 1 (yes)

Task: Repeat for the following compound: O=C(Nc1cccc(-n2cc(-c3ccncc3)c(-c3ccc(Cl)c(O)c3)n2)c1)Nc1cccc(C(F)(F)F)c1
Output: 0 (no)

Task: Repeat for the following compound: CC12CCC3C4(C)COC(c5ccco5)OC4CCC3(C)C1CC(C1=CCOC1=O)O2 (stereo unspecified)
Output: 0 (no)

Task: Repeat for the following compound: CCCOC(=O)n1cccc1
Output: 0 (no)
